- Tested on: HSV1
- Test details: HSV1 plaque formation assay in Vero cells
- Assay type: cell-based
- Test context: Human alphaherpesvirus 1, Vero, read-out: HSV1 IC50
Reported metric: pIC50
On this scale, pIC50 is minus log10 of a concentration expressed in M (mol/L).

## Input What pIC50 value was documented for this compound, O=C(O)C(O)Cc1ccc(O)c(O)c1 (stereo not shown) ?
## Output 4.33
